Provide the recorded IC50 for the entries that follow.
Test system: 699152-130-R-J1-PDC complex spheroid growth;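 note: compound exposure lasted 7 days after spheroids had grown for 3 days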
Assay: Anticancer human tumor 699152-130-R-J1-PDC patient-derived pancreatic carcinoma cell line growth inhibition [AhR]
Conditions: curve of first compound; second compound 0.1 µM
One number for each entry, in nM.

[
  {
    "MOLECULE": "COc1cccc2c1C(=O)c1c(O)c3c(c(O)c1C2=O)CC(O)(C(=O)CO)CC3OC1CC(N)C(O)C(C)O1 (stereo unspecified) + Cc1ccccc1N=Nc1ccc(NC(=O)c2ccnn2C)c(C)c1",
    "NUMERIC_READOUT": 214
  },
  {
    "MOLECULE": "COc1cccc2c1C(=O)c1c(O)c3c(c(O)c1C2=O)CC(O)(C(=O)CO)CC3OC1CC(N)C(O)C(C)O1 (stereo unspecified) + Cc1cncc(-c2nc(NCCc3c[nH]c4ccccc34)c3ncn(C(C)C)c3n2)c1",
    "NUMERIC_READOUT": 349
  },
  {
    "MOLECULE": "NS(=O)(=O)OCC1CC(n2ccc3c(NC4CCc5ccccc54)ncnc32)CC1O (stereo unspecified) + Cc1ccccc1N=Nc1ccc(NC(=O)c2ccnn2C)c(C)c1",
    "NUMERIC_READOUT": 807
  }
]

Next item in the queue.
Qu. For the molecule shown here, COc1ccc([C@@H](O)c2cc(-c3ncnc4cc(N5CCOCC5)ccc34)c(F)cc2Cl)nn1 + Cc1ccccc1N=Nc1ccc(NC(=O)c2ccnn2C)c(C)c1 , give the reported IC50.
Ans. 4780
